B1: KLHL12 (parent)
chain: REESLPNLLQYVRMPLLTPRYITD

Variants of: B1
Test: protein stability index of a GFP-peptide fusion (GPS, HEK-293T) (PSI 1-6); higher = more stable;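 further: lentivirally expressed fusions sorted by FACS into six bins by GFP to DsRed ratio, PSI derived from sequencing read proportions per bin multiplied by bin number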
Conditions: c terminus: a fixed tail appended
Kindly supply the reported protein stability index values for the records listed here.
Answers are plain numbers.

Field: example entries. Status: answers known.
>>> recordedmeasurement("REESLPNLLQYVRMPLVTPRYITD [L17V]")
3.56
>>> recordedmeasurement("REESLPNLLQYVRMPLLTNRYITD [P19N]")
2.48

State recorded protein stability index for all listed variants.
1. REESLPNLLQYVRMPLLTPRHITD [Y21H]
2. REESLPNLLQYVRMPLLTPRYITN [D24N]

[A]
[3.08, 2.35]

State recorded protein stability index for all listed variants.
1. REESLPNLLQYVRMPLWTPRYITD [L17W]
2. REESLPNLLIYVRMPLLTPRYITD [Q10I]
3. REESLPFLLQYVRMPLLTPRYITD [N7F]
4. REESLPNLLQYVRMPLLTPYYITD [R20Y]

[A]
[2.33, 4.07, 2.23, 1.67]
